# credit: ChEMBL document CHEMBL3217729

Below is a list of entries, each paired with its recorded CC50 at 72 h value.
experiment: Cytostatic activity against human Huh5-2 cells assessed as decrease in cell proliferation after 3 days by MTS method; format: ADME, cell-based, Huh-5-2

molecule: CC(=O)CC[C@H]1C(=O)N[C@@H](C(C)C)C(=O)N[C@@H](Cc2cccc(O)c2)C(=O)N2CCCC(N2)C(=O)O[C@H](/C(C)=C/C=C/C(=O)NC(C)C)C/C=C/C=C/[C@H](O)[C@H](C)[C@H]1O (stereo in doubt)
CC50 at 72 h: > 100 µM

Let us examine a further case.
Which CC50 at 72 h reading was recorded for the molecule CC(=O)CC[C@H]1C(=O)N[C@@H](C(C)C)C(=O)N[C@@H](Cc2cccc(O)c2)C(=O)N2CCCC(N2)C(=O)O[C@H](/C(C)=C/C=C/C(=O)N2CCCCO2)C/C=C/C=C/[C@H](O)[C@H](C)[C@H]1O (some centres not stated) ?
> 100 µM

----------
assay: Cytostatic activity against human Huh5-2 cells assessed as decrease in cell proliferation after 3 days by MTS method; assay type: ADME, cell-based, Huh-5-2
measuredAttribute: CC50 at 72 h

The examples below pair each entry with its known result.
compound: CC(=O)CC[C@H]1C(=O)N[C@@H](C(C)C)C(=O)N[C@@H](Cc2cccc(O)c2)C(=O)N2CCCC(N2)C(=O)O[C@H](/C(C)=C/C=C/C(=O)N(C)C)C/C=C/C=C/[C@H](O)[C@H](C)[C@H]1O (some centres undefined)
measuredAttribute: CC50 at 72 h
valueObserved: > 100 µM
--
compound: CC(=O)CC[C@H]1C(=O)N[C@@H](C(C)C)C(=O)N[C@@H](Cc2cccc(O)c2)C(=O)N2CCCC(N2)C(=O)O[C@H](/C(C)=C/C=C/C(=O)Nc2cccnc2)C/C=C/C=C/[C@H](O)[C@H](C)[C@H]1O (stereo in doubt)
measuredAttribute: CC50 at 72 h
valueObserved: > 100 µM

So what's the measured CC50 at 72 h for this one? C=CCNC(=O)/C=C/C=C(\C)[C@@H]1C/C=C/C=C/[C@H](O)[C@H](C)[C@@H](O)[C@@H](CCC(C)=O)C(=O)N[C@@H](C(C)C)C(=O)N[C@@H](Cc2cccc(O)c2)C(=O)N2CCCC(N2)C(=O)O1 (stereo in doubt)
48 µM

Next: CC(=O)CC[C@H]1C(=O)N[C@@H](C(C)C)C(=O)N[C@@H](Cc2cccc(O)c2)C(=O)N2CCCC(N2)C(=O)O[C@H](/C(C)=C/C=C/C(=O)Nc2ccccn2)C/C=C/C=C/[C@H](O)[C@H](C)[C@H]1O (stereo in doubt)
40 µM

What would you report for CNC(=O)/C=C/C=C(\C)[C@@H]1C/C=C/C=C/[C@H](O)[C@H](C)[C@@H](O)[C@@H](CCC(C)=O)C(=O)N[C@@H](C(C)C)C(=O)N[C@@H](Cc2cccc(O)c2)C(=O)N2CCCC(N2)C(=O)O1 (stereo in doubt) ?
> 100 µM

Further, for CC(=O)CC[C@H]1C(=O)N[C@@H](C(C)C)C(=O)N[C@@H](Cc2cccc(O)c2)C(=O)N2CCCC(N2)C(=O)O[C@H](/C(C)=C/C=C/C(=O)Nc2ccc(-c3ccccc3)cc2)C/C=C/C=C/[C@H](O)[C@H](C)[C@H]1O (stereo in doubt) ?
> 100 µM

CC(=O)CC[C@H]1C(=O)N[C@@H](C(C)C)C(=O)N[C@@H](Cc2cccc(O)c2)C(=O)N2CCCC(N2)C(=O)O[C@H](/C(C)=C/C=C/C(=O)Nc2ccncc2)C/C=C/C=C/[C@H](O)[C@H](C)[C@H]1O (some centres undefined) , same question.
> 100 µM

Try the compound CC(=O)CC[C@H]1C(=O)N[C@@H](C(C)C)C(=O)N[C@@H](Cc2cccc(O)c2)C(=O)N2CCCC(N2)C(=O)O[C@H](/C(C)=C/C=C/C(=O)N(CC(C)C)CC(C)C)C/C=C/C=C/[C@H](O)[C@H](C)[C@H]1O (some centres undefined)
2.1 µM

// query: CC(=O)CC[C@H]1C(=O)N[C@@H](C(C)C)C(=O)N[C@@H](Cc2cccc(O)c2)C(=O)N2CCCC(N2)C(=O)O[C@H](/C(C)=C/C=C/C(=O)N(C)c2ccccn2)C/C=C/C=C/[C@H](O)[C@H](C)[C@H]1O (some centres undefined)
> 100 µM
